Values from patent US20240058450A1

biological target: Bcl-xL (Homo sapiens); test: Time Resolved-Fluorescence Resonance Energy Transfer (TR-FRET) binding assay, competition with probe F-Bak; details: without HS; read-out: Bcl-xL Binding Ki
pKi: −log10 of the molar value.
Listing of entries alongside the reported pKi.

Observe how each entry below is paired with its result.
INSERT INTO assay_data (compound_smiles, measured_on, value_reported) VALUES
  ('Cc1c(-c2ccc(N3CCc4cccc(C(=O)Nc5nc6ccccc6s5)c4C3)nc2C(=O)O)cnn1CC12CC3(C)CC(C)(C1)CC(OCCNCCOCCOCC(=O)O)(C3)C2', 'Bcl-xL (Homo sapiens)', '> 12.00'),
  ('Cc1c(-c2ccc(N3CCc4cccc(C(=O)Nc5nc6ccccc6s5)c4C3)nc2C(=O)O)cnn1CC12CC3(C)CC(C)(C1)CC(OCCNCCCc1cn([C@@H]4O[C@H](C(=O)O)[C@@H](O)[C@H](O)[C@H]4O)nn1)(C3)C2', 'Bcl-xL (Homo sapiens)', 9.06);

Exercise: // pKi lookup, key: Cc1c(-c2ccc(-c3ccc4nccc(C(=O)Nc5nc6ccccc6s5)c4c3)nc2C(=O)O)cnn1CC12CC3(C)CC(C)(C1)CC(OCCNCCS(=O)(=O)O)(C3)C2
Key: > 11.00

----------
tested on: permeabilized Molt-4 cells; assay: JC-1 percent depolarization assay in digitonin permeabilized Molt-4 cells; assay type: cell-based; conditions: Homo sapiens
pEC50: −log10 of the molar value.
measure-name: pEC50

a = Cc1c(-c2ccc(N3CCc4cccc(C(=O)Nc5nc6ccccc6s5)c4C3)nc2C(=O)O)cnn1CC12CC3(C)CC(C)(C1)CC(OCCNCC[C@H](O)CO)(C3)C2
b = Cc1c(-c2ccc(N3CCc4cccc(C(=O)Nc5nc6ccccc6s5)c4C3)nc2C(=O)O)cnn1CC12CC3(C)CC(C)(C1)CC(OCCNCC(CO)CO)(C3)C2
c = Cc1c(-c2ccc(N3CCc4cccc(C(=O)Nc5nc6ncccc6s5)c4C3)nc2C(=O)O)cnn1CC12CC3(C)CC(C)(C1)CC(OCCNCCS(=O)(=O)O)(C3)C2
Exercise: Ranking by pEC50 (descending) is requested for the entries above. Please write the labels in the order that was asked for.
Key: a, b, c

a = Cc1c(-c2ccc(N3CCc4cccc(C(=O)Nc5nc6ccccc6s5)c4C3)nc2C(=O)O)cnn1CC12CC3(C)CC(C)(C1)CC(OCCNC(CO)CO)(C3)C2
b = CNCCOC12CC3(C)CC(C)(CC(Cn4ncc(-c5ccc(-c6ccc7c[n+]([O-])cc(C(=O)Nc8nc9ccccc9s8)c7c6)nc5C(=O)O)c4C)(C3)C1)C2
c = Cc1c(-c2ccc(-c3ccc4cccc(C(=O)Nc5nc6ccccc6s5)c4c3)nc2C(=O)O)cnn1CC12CC3(C)CC(C)(C1)CC(OCCNCCCO[C@@H]1O[C@H](C(=O)O)[C@@H](O)[C@H](O)[C@H]1O)(C3)C2
Exercise: Ranking field: pEC50; order: falling. Please write the labels in the order that was asked for.
Key: c, a, b
(c: 10.22, a: 9.89, b: 9.68)

----------
target: Bcl-xL (Homo sapiens, UniProt Q07817); assay: Time Resolved-Fluorescence Resonance Energy Transfer (TR-FRET) binding assay, competition with probe F-Bak; settings: in the presence of 1% HS; read-out: Bcl-xL Binding Ki (nM, 1% HS)
Sequence (Q07817 whole entry): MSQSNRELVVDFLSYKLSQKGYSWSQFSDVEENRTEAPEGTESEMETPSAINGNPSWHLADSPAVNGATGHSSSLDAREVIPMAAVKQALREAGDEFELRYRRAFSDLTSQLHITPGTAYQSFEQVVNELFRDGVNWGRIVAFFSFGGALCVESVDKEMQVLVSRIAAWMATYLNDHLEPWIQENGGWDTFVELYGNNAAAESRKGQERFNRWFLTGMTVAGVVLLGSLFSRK
measure-name: Ki (nM)

INSERT INTO assay_data (compound_smiles, measure_name, value_reported) VALUES
  ('Cc1c(-c2ccc(N3CCc4cccc(C(=O)Nc5nc6ccccc6s5)c4C3)nc2C(=O)O)cnn1CC12CC3(C)CC(C)(CC(CCCNCCS(=O)(=O)O)(C3)C1)C2', 'Ki', 2.8),
  ('Cc1c(-c2ccc(N3CCc4cccc(C(=O)Nc5nc6ccccc6s5)c4C3)nc2C(=O)O)cnn1CC12CC3(C)CC(C)(C1)CC(OCCN(CCCN)CCS(=O)(=O)O)(C3)C2', 'Ki', 0.097),
  ('Cc1c(-c2ccc(N3CCc4cccc(C(=O)Nc5nc6ccccc6s5)c4C3)nc2C(=O)O)cnn1CC12CC3(C)CC(C)(C1)CC(OCCN(CCS(=O)(=O)O)C(=O)[C@@H](N)CS(=O)(=O)O)(C3)C2', 'Ki', 0.294);

a = Cc1c(-c2ccc(N3CCc4cccc(C(=O)Nc5nc6ccccc6s5)c4C3)nc2C(=O)O)cnn1CC12CC3(C)CC(C)(C1)CC(OCCN(CCN)CCS(=O)(=O)O)(C3)C2
b = Cc1c(-c2ccc(N3CCc4cccc(C(=O)Nc5nc6ccccc6s5)c4C3)nc2C(=O)O)cnn1CC12CC3(C)CC(C)(C1)CC(OCCNCc1ccc(S(=O)(=O)N[C@@H]4[C@@H](O)[C@H](O)[C@@H](CO)O[C@H]4O)cc1)(C3)C2
Exercise: Decide: a or b , by lowest recorded Ki. Answer = label.
Key: a
(a: 0.12 nM, b: 0.19 nM)
